Listed here are sequences together with their documented phosphorylation enrichment.
# target_desc: EPHB2 (UniProt P29323)
# Sequence (P29323 whole entry, looked up): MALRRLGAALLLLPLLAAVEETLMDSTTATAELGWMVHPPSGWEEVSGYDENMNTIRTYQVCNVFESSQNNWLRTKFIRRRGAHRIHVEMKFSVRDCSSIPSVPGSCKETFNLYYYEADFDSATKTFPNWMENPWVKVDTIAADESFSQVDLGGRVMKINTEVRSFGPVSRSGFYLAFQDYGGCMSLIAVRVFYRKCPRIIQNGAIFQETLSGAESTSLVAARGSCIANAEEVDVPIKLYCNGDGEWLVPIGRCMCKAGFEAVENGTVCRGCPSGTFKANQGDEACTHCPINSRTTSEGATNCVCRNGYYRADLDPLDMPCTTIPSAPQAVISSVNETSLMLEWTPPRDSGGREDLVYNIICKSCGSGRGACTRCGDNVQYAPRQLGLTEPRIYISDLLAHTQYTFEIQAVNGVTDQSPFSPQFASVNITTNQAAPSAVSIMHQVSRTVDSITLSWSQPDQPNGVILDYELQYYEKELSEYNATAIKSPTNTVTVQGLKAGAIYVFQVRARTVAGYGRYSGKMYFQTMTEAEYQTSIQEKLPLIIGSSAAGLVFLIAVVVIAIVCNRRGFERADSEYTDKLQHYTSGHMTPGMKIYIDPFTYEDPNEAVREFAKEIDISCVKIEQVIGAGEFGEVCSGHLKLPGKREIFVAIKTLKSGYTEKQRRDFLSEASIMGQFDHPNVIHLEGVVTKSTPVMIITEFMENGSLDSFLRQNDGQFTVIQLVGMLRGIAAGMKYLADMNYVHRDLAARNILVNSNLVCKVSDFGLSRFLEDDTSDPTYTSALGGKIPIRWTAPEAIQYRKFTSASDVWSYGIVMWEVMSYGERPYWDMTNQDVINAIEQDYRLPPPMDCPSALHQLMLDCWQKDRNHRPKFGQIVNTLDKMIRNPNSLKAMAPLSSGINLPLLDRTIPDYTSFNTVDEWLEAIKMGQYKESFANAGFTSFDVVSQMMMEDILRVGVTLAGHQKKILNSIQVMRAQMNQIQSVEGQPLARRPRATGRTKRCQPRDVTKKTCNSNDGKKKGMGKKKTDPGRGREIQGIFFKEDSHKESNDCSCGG
# assay_remarks: phosphorylation enrichment, bacterial display (enrichment ratio); higher = better substrate or ligand; peptides without Tyr show the background;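 note: 11-residue human phosphosite peptides and single-mutation variants displayed on the E. coli surface, counted by deep sequencing, each peptide's frequency after selection divided by its frequency in the unselected input library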;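 note: frequency after pTyr selection over input frequency; kinase dosed for 20-30% of maximal phosphorylation in three min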
Write no unit; give the number alone.

Use these answered entries as a reference point.
PELINCHQHNS [BTK_Y361_Y361C] = 0.9
TEALYYTDDPA [ADPRS_Y75_T79P] = 0.882

Could you now look at the following sequence, please?
// query Please report the recorded phosphorylation enrichment for DLVHPYVHKIL [SF3B1_Y570_R568H] .
// result 0.51

====

# System: c-Abl (mouse)
# assay_remarks: phosphorylation enrichment, bacterial display (enrichment ratio); higher = better substrate or ligand; peptides without Tyr show the background
measured_parameter: phosphorylation enrichment

PNKAVYTKMMT [G6PD_Y401_E398K] = 0.426
MDDKEYFSVHN [MET_Y1234_Y1230D_YF] = 0.757
QSSALYEDHYL [ASS1_Y83_R86H] = 0.734
MARDIYRASFF [ALK_Y1278_YF] = 3.1
VVRSLYEDLED [VHL_Y185_I180V] = 0.835
CPFNLYAAQLS [HGD_Y40_E42A_YF] = 0.874
PINEPYGDDLD [JUP_Y693_M697L] = 0.972
LVGTPYWMAPE [PAK5_Y608] = 0.694

Turning to the following sequence.
// query What does the data say about its phosphorylation enrichment? Entry: RVLQLYGCSPS [ASTL_Y279_K277Q]
// result 1.38

====

# Test system: AncSZ
# assay_remarks: phosphorylation enrichment, bacterial display (enrichment ratio); higher = better substrate or ligand; peptides without Tyr show the background
Quick reference for phosphorylation enrichment among some sequences
Please reply with the number alone, leaving off any unit.

Reference set (3 entries):
SVFNNYIQTLG [CTNND1_Y174_S171F] = 0.705
SHSMRYFSTAV [HLA-C_Y31_D33S] = 0.719
EKKKFYDTKIE [CASP5_Y104_YF] = 0.772

// query Param readout = phosphorylation enrichment; param system = AncSZ; param query = RPLVVYPWTQR [HBB_Y36_L32P] ; response: value
// result 0.728

// query Subsequent entry: GTHCHYKAPTV [FZD9_Y569]
// result 0.648

// query Next: FESPRYLQVHI [FANCA_Y488]
// result 0.928

====

# Tested on: c-Src
# assay_remarks: phosphorylation enrichment, bacterial display (enrichment ratio); higher = better substrate or ligand; peptides without Tyr show the background
measured_parameter: phosphorylation enrichment

Please review the following examples before continuing.
ETCLAYMEKRI [TEKT1_Y118_R119M] = 0.511
TLMNAYSSRCH [KIF11_Y231_S235C] = 0.471
FQKDVYNIPPS [NEDD9_Y177_D178N_YF] = 2.21
RPQDGYRIVQH [PTPRT_Y1329] = 0.649

// query Consider the sequence FLLTVYSIFSK [SGCE_Y38] and give its measured phosphorylation enrichment.
// result 3.17

// query Again, but for AFDNLYFWDQD [ERBB2_Y1221_YF]
// result 5.12

// query Repeat with GHGEEYPVAGA [NOTCH3_Y2221_A2223V]
// result 0.398

// query Now this one: TIMTNYNPNYC [ALK_Y1092_D1091N]
// result 0.45

// query Now try WAFNLYDINKD [KCNIP3_Y174] .
// result 1.78
